B1: GMCL1 (parent)
chain: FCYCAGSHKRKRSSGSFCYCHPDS

# Variants of: B1
# testSummary: protein stability index of a GFP-peptide fusion (GPS, HEK-293T) (PSI 1-6); higher = more stable;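 note: lentivirally expressed fusions sorted by FACS into six bins by GFP to DsRed ratio, PSI derived from sequencing read proportions per bin multiplied by bin number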
# measurementConditions: c terminus: a fixed tail appended
Parameter protein stability index: see the listing below.
Returns: the value as a bare number; no unit string appended.

Illustrative cases are given below, each with its answer.
1. FCYCAQSHKRKRSSGSFCYCHPDS [G6Q] | 2
2. FCYCAGSHKRCRSSGSFCYCHPDS [K11C] | 1.77
3. FCYCAGSHKRKRSSKSFCYCHPDS [G15K] | 1.72
4. FCYCAGSHKRKRVSGSFCYCHPDS [S13V] | 1.86
5. FCYCAGSHKRKRSSGSFCYCHPQS [D23Q] | 2.34
6. FCYCAGSHKRKRSSGMFCYCHPDS [S16M] | 2.44
7. FCYCARSHKRKRSSGSFCYCHPDS [G6R] | 2.05
8. FCYCAGSHKRKRSTGSFCYCHPDS [S14T] | 1.46

**Q:** Request the reported protein stability index associated with FAYCAGSHKRKRSSGSFCYCHPDS [C2A]
**A:** 2.76

**Q:** Repeat for the following variant: FCYCAGSHKRKRSSGSFCYCHPDP [S24P]
**A:** 1.88

**Q:** Repeat for the following variant: FCYCAFSHKRKRSSGSFCYCHPDS [G6F]
**A:** 1.92

**Q:** Repeat for the following variant: FCYCAGSHKRKRSSGSFCYCHPVS [D23V]
**A:** 1.44

**Q:** Repeat for the following variant: FCYCAGSFKRKRSSGSFCYCHPDS [H8F]
**A:** 1.97

**Q:** Repeat for the following variant: FCYCAGSHKRKRSSGSFHYCHPDS [C18H]
**A:** 1.77

**Q:** Repeat for the following variant: FCYCAGSHKRKRSSGSFCYCHYDS [P22Y]
**A:** 2.02

**Q:** Repeat for the following variant: FCYCAGSHKRKRSSGSFCYCHEDS [P22E]
**A:** 2.01

**Q:** Repeat for the following variant: FCYCAGSHKRKRSFGSFCYCHPDS [S14F]
**A:** 2.35

**Q:** Repeat for the following variant: FCYCAGPHKRKRSSGSFCYCHPDS [S7P]
**A:** 1.7

**Q:** Repeat for the following variant: FCYCAGSHKRKRSSGSFCPCHPDS [Y19P]
**A:** 3.37

**Q:** Repeat for the following variant: LCYCAGSHKRKRSSGSFCYCHPDS [F1L]
**A:** 2.8
